Tested on: NCI-H211 (Small Cell Lung Carcinoma);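 also: after 72 h of two-drug dosing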
test.description: Bliss excess, mean over the matrix (fraction); higher = more synergy
Use Yes when the recorded Bliss excess is no lower than -0.008; use No when it is lower.

Entry O=C(c1cc(Cc2n[nH]c(=O)c3ccccc23)ccc1F)N1CCN(C(=O)C2CC2)CC1 [Olaparib] + Cc1c2c(nn1C)CSCc1cc(n(C)n1)CSc1cc(c3ccccc3c1)OCCCc1c(C(=O)O)n(C)c3c-2c(Cl)ccc13 [AZD5991] (first compound max 10 µM, 7x7, partner max 1 µM) : is its Bliss excess no less than -0.008?
Yes

Next:
# check: Bliss excess of NC1(C(=O)N[C@@H](CCO)c2ccc(Cl)cc2)CCN(c2ncnc3[nH]ccc23)CC1 [Capivasertib] + COc1nnc2ccc(N3CCC(c4ccc(OCCN5CCN(C)C(=O)[C@H]5C)cc4)CC3)nn12 [AZD5153] (first compound max 10 µM, 7x7, partner max 1 µM) is greater than or equal to -0.008
No

Check if Bliss excess >= -0.008 (inclusive). Item: C[C@@H]1COCCN1c1cc(C2([S@](C)(=N)=O)CC2)nc(-c2ccnc3[nH]ccc23)n1 [AZD6738] + Nc1ccn([C@@H]2O[C@H](CO)[C@@H](O)C2(F)F)c(=O)n1 [Gemcitabine] (first compound max 10 µM, 7x7, partner max 0.3 µM)
Yes

Does CS(=O)(=O)CCNCc1ccc(-c2ccc3ncnc(Nc4ccc(OCc5cccc(F)c5)c(Cl)c4)c3c2)o1 [Lapatinib] + C[C@@H](Oc1cc(-c2cnn(C3CCNCC3)c2)cnc1N)c1c(Cl)ccc(F)c1Cl [Crizotinib] (first compound max 10 µM, 7x7, partner max 10 µM) have a reported Bliss excess of at least -0.008?
No

* * *

Test system: RH-1 (Ewing's Sarcoma)
test.description: combination Emax (second highest fraction inhibited in the dose matrix, 72 h); higher = more inhibition; extreme values may be limits of the assay
The reader will find reported combination Emax values listed item by item below.

The examples below pair each entry with its known result.
Short answer for Cn1cnc2c(F)c(Nc3ccc(Br)cc3Cl)c(C(=O)NOCCO)cc21 [Selumetinib] + CC(C)n1c(=O)n(C)c2cnc3cc(F)c(-c4ccc(OCCCN5CCCCC5)nc4)cc3c21 [AZD1390] (first compound max 10 µM, 7x7, partner max 0.3 µM) : combination Emax was 0.048

For this molecule ( COc1cc2ncnc(Nc3ccc(F)c(Cl)c3)c2cc1OCCCN1CCOCC1 [Gefitinib] + CC(C)n1c(=O)n(C)c2cnc3cc(F)c(-c4ccc(OCCCN5CCCCC5)nc4)cc3c21 [AZD1390] (first compound max 10 µM, 7x7, partner max 0.3 µM) ), measured combination Emax is 0.188

Further cases:
The molecule identified as CN(CCO)CC[C@H](CSc1ccccc1)Nc1ccc(S(=O)(=O)NC(=O)c2ccc(N3CCC([C@@H](O)c4ccccc4-c4ccc(Cl)cc4)CC3)cc2)cc1S(=O)(=O)C(F)(F)F [AZD4320] + C=CCn1c(=O)c2cnc(Nc3ccc(N4CCN(C)CC4)cc3)nc2n1-c1cccc(C(C)(C)O)n1 [AZD1775] (first compound max 1 µM, partner max 1 µM) registered its combination Emax at 0.986

Looking up CS(=O)(=O)CCNCc1ccc(-c2ccc3ncnc(Nc4ccc(OCc5cccc(F)c5)c(Cl)c4)c3c2)o1 [Lapatinib] + C[C@@H](Oc1cc(-c2cnn(C3CCNCC3)c2)cnc1N)c1c(Cl)ccc(F)c1Cl [Crizotinib] (first compound max 10 µM, 7x7, partner max 10 µM) , I found its combination Emax recorded as 0.939

Sample COc1cc2c(cc1OCCCCCOc1cc3c(cc1OC)C(=O)N1C=C(C)C[C@H]1C=N3)N=C[C@@H]1CC(C)=CN1C2=O [SG3199] + O=C(c1cc(Cc2n[nH]c(=O)c3ccccc23)ccc1F)N1CCN(C(=O)C2CC2)CC1 [Olaparib] (first compound max 0.001 µM, 7x7, partner max 10 µM) ; combination Emax observed: 0.189

Form: molecule = CC(=O)c1c(C)c2cnc(Nc3ccc(N4CCNCC4)cn3)nc2n(C2CCCC2)c1=O [Palbociclib] + Cn1cnc2c(F)c(Nc3ccc(Br)cc3Cl)c(C(=O)NOCCO)cc21 [Selumetinib] (first compound max 10 µM, 7x7, partner max 10 µM) ; combination Emax = 0.228

Quick note, combination Emax for CN(CCO)CC[C@H](CSc1ccccc1)Nc1ccc(S(=O)(=O)NC(=O)c2ccc(N3CCC([C@@H](O)c4ccccc4-c4ccc(Cl)cc4)CC3)cc2)cc1S(=O)(=O)C(F)(F)F [AZD4320] + C[C@@H](Nc1cc(F)cc(F)c1)c1cc(C(=O)N(C)C)cc2c(=O)cc(N3CCOCC3)oc12 [AZD8186] (first compound max 1 µM, 7x7, partner max 3 µM) landed at 0.885
